Target: Eukaryotic peptide chain release factor GTP-binding subunit ERF3A (Homo sapiens, UniProt P15170)
Sequence (P15170 whole entry): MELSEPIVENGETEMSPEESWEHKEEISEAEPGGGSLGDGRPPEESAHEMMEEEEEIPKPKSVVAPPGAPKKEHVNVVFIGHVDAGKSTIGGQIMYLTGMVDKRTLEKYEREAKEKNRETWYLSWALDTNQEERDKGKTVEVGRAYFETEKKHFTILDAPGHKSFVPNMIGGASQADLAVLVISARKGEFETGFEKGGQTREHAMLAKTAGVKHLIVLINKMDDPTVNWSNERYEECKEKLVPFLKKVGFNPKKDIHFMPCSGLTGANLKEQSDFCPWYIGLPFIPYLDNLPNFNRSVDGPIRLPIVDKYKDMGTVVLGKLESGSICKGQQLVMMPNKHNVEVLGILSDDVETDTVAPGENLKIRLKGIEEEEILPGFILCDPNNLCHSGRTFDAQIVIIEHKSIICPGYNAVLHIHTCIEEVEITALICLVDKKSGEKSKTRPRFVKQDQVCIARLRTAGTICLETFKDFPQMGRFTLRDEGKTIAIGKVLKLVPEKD
Assay: Induction of ePL tagged GSPT1 degradation in human DF15 cells incubated for 20 hrs by luminescence based assay
pEC50: −log10 of the molar value.
Measured pEC50 of individual entries
property: pEC50

molecule="Cc1ccc(NC(=O)NCc2cccc(C3CCC(=O)NC3=O)c2)cc1Cl (centres undefined)" result="< 5.00"
molecule="O=C1CCC(c2ccc(OCc3ccc(CN4CCOCC4)cc3)cc2)C(=O)N1 (centres undefined)" result="< 5.00"
molecule="Cc1ccc(NC(=O)NCc2ccc(C(=O)NC3CCC(=O)NC3=O)cc2)cc1Cl (centres undefined)" result=7.00
molecule="O=C1CCC(c2cccc(OCc3ccc(CN4CCOCC4)cc3)c2)C(=O)N1 (centres undefined)" result="< 5.00"
molecule=O=C1CCN(c2ccc(OCc3ccc(CN4CCOCC4)cc3)cc2)C(=O)N1 result="< 5.00"
molecule=Cc1ccc(NC(=O)NCc2ccc(N3CCC(=O)NC3=O)cc2)cc1Cl result="< 5.00"
molecule=Cc1ccc(NC(=O)NCc2cccc(N3CCC(=O)NC3=O)c2)cc1Cl result="< 5.00"
molecule="Cc1ccc(NC(=O)NCc2ccc3c(c2)CN(C2CCC(=O)NC2=O)C3=O)cc1Cl (centres undefined)" result=9.52
molecule="Cc1ccc(NC(=O)NCc2ccc(C3CCC(=O)NC3=O)cc2)cc1Cl (centres undefined)" result=7.15
molecule="O=C1CC[C@H](N2Cc3c(OCc4ccc(CN5CCOCC5)cc4)cccc3C2=O)C(=O)N1 [IBERDOMIDE]" result="< 5.00"
molecule="Cc1ccc(NC(=O)NCc2ccccc2C(=O)NC2CCC(=O)NC2=O)cc1Cl (centres undefined)" result="< 5.00"
molecule="O=C1CCC(n2cnc3ccc(OCc4ccc(CN5CCOCC5)cc4)cc32)C(=O)N1 (centres undefined)" result="< 5.00"
molecule="Cc1ccc(NC(=O)NCc2cccc(C(=O)NC3CCC(=O)NC3=O)c2)cc1Cl (centres undefined)" result=7.68
molecule=O=C1CCN(c2cccc(OCc3ccc(CN4CCOCC4)cc3)c2)C(=O)N1 result="< 5.00"

* * *

Target: Zinc finger protein Aiolos (Homo sapiens, UniProt Q9UKT9)
Sequence (Q9UKT9 whole entry): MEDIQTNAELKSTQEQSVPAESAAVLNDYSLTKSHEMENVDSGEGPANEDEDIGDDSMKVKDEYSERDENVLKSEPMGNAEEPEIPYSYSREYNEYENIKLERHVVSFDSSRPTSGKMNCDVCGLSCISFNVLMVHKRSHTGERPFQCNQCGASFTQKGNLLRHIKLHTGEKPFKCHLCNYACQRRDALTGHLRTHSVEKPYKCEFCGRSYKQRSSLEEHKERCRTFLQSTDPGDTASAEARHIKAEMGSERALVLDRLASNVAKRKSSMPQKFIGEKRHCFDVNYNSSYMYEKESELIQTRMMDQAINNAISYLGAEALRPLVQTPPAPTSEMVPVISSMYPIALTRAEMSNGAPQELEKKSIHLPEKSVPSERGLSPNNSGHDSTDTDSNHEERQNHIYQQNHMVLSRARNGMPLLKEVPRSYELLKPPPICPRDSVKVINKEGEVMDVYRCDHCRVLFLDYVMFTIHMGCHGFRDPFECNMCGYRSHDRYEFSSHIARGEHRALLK
Assay: Induction of ePL tagged Aiolos degradation in human DF15 cells incubated for 4 hrs by luminescence based assay
pEC50: −log10 of the molar value.
Measured pEC50 of individual entries
property: pEC50

compound=Cn1nc(N2CCC(=O)NC2=O)c2cccc(N)c21 result="< 5.00"
compound=Cn1nc(N2CCC(=O)NC2=O)c2ccc(N)cc21 result="< 5.00"
compound="O=C1CCC(n2ncc3ccccc32)C(=O)N1 (configuration not stated)" result="< 5.00"
compound=Nc1ccc(N2CCC(=O)NC2=O)cc1 result="< 5.00"
compound="O=C1CCC(n2cnc3ccc(OCc4ccc(CN5CCOCC5)cc4)cc32)C(=O)N1 (configuration not stated)" result=7.15
compound="Cc1ccc(NC(=O)NCc2cccc(C(=O)NC3CCC(=O)NC3=O)c2)cc1Cl (configuration not stated)" result="< 5.00"
compound="Nc1ccc2c(c1)ncn2C1CCC(=O)NC1=O (configuration not stated)" result=6.51
compound="Nc1cccc(C2CCC(=O)NC2=O)c1 (configuration not stated)" result="< 5.00"
compound="Cc1ccc(NC(=O)NCc2cccc(C3CCC(=O)NC3=O)c2)cc1Cl (configuration not stated)" result="< 5.00"
compound=O=c1ccn(-c2ccccc2)c(=O)[nH]1 result="< 5.00"
compound="Nc1ccc(C(=O)NC2CCC(=O)NC2=O)cc1 (configuration not stated)" result=6.22
compound=Cn1nc(N2CCC(=O)NC2=O)c2ccccc21 result="< 5.00"
compound="Nc1cccc2c1cnn2C1CCC(=O)NC1=O (configuration not stated)" result="< 5.00"
compound="Nc1cccc2c1ncn2C1CCC(=O)NC1=O (configuration not stated)" result="< 5.00"
compound="O=C1CCC(Nc2ccccc2)C(=O)N1 (configuration not stated)" result="< 5.00"
compound="O=C1CCC(NC(=O)c2ccccc2)C(=O)N1 (configuration not stated)" result="< 5.00"
compound="O=C1CCC(Oc2ccccc2)C(=O)N1 (configuration not stated)" result="< 5.00"
compound="Cn1nc(C2CCC(=O)NC2=O)c2ccc(N)cc21 (configuration not stated)" result="< 5.00"
compound=Nc1cccc(N[C@@H]2CCC(=O)NC2=O)c1 result="< 5.00"
compound=Cc1ccc(NC(=O)NCc2ccc(N3CCC(=O)NC3=O)cc2)cc1Cl result="< 5.00"
compound="COc1cccc(C2CCC(=O)NC2=O)c1 (configuration not stated)" result="< 5.00"
compound=Cc1ccc(NC(=O)NCc2cccc(N3CCC(=O)NC3=O)c2)cc1Cl result="< 5.00"
compound="O=C1CC[C@H](N2Cc3c(OCc4ccc(CN5CCOCC5)cc4)cccc3C2=O)C(=O)N1 [IBERDOMIDE]" result=9.00
compound=O=C1CCN(c2cccc(OCc3ccc(CN4CCOCC4)cc3)c2)C(=O)N1 result="< 5.00"
compound=O=C1CCN(c2ccc(OCc3ccc(CN4CCOCC4)cc3)cc2)C(=O)N1 result="< 5.00"
compound=Nc1cccc(N2CCC(=O)NC2=O)c1 result="< 5.00"
compound="Cn1nc(C2CCC(=O)NC2=O)c2ccccc21 (configuration not stated)" result="< 5.00"
compound="Nc1ccc2ncn(C3CCC(=O)NC3=O)c2c1 (configuration not stated)" result=6.85
compound="Cc1ccc(NC(=O)NCc2ccccc2C(=O)NC2CCC(=O)NC2=O)cc1Cl (configuration not stated)" result="< 5.00"
compound="Nc1ccc(C2CCC(=O)NC2=O)cc1 (configuration not stated)" result="< 5.00"
compound="Nc1cccc(C(=O)NC2CCC(=O)NC2=O)c1 (configuration not stated)" result="< 5.00"
compound="Cc1ccc(NC(=O)NCc2ccc(C(=O)NC3CCC(=O)NC3=O)cc2)cc1Cl (configuration not stated)" result="< 5.00"

Taken from ChEMBL document CHEMBL5375960.
